system: SCP28 breast cancer cells; experiment: Experimental bone metastasis: intracardiac SCP28 cells in nude mice, BLI, X-ray, histology; format: in vivo, mouse; conditions: summary statement
Parameter measured: osteolytic bone metastasis

Substance	Assay result
miR-133a: miRNA, SEQ ID NO: 61; delivered as pre-miRNA precursor; targets Mitf and Mmp14 (UUUGGUCCCCUUCAACCAGCUA; delivered as pre-miRNA precursor, chemistry not given here; listed as Homo sapiens)	no measurable effect
miR-190: miRNA, SEQ ID NO: 64; delivered as pre-miRNA precursor; targets Calcr (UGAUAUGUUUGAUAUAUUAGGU; delivered as pre-miRNA precursor, chemistry not given here; listed as Homo sapiens)	no measurable effect
miR-141: miRNA, SEQ ID NO: 69; delivered as pre-miRNA precursor; targets Mitf and Calcr (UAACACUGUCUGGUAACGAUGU; delivered as pre-miRNA precursor, chemistry not given here; listed as Homo sapiens)	capable of inhibiting
miR-219: miRNA, SEQ ID NO: 66; delivered as pre-miRNA precursor; targets Mitf and Traf6 (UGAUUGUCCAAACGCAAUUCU; delivered as pre-miRNA precursor, chemistry not given here; listed as Homo sapiens)	capable of inhibiting
